system: Mycobacterium tuberculosis Erdman (autoluminescent); assay: AUC25, normalised area under dose response up to IC25 (three-drug combination) (fraction (0-1)); higher = more potent at low dose; details: in vitro model: cholesterol-high 0.2 mM; time point: terminal (~4-5 doublings, model-specific)
experimental-endpoint: AUC25
One number for each entry.

Please review the following examples before continuing.
molecule: CC[C@@H](CO)NCCN[C@@H](CC)CO [ethambutol] + NNC(=O)c1ccncc1 [isoniazid] + COc1c(N2C[C@@H]3CCCN[C@@H]3C2)c(F)cc2c(=O)c(C(=O)O)cn(C3CC3)c12 [moxifloxacin]
measured-value: 0.0472
//
molecule: CC[C@@H](CO)NCCN[C@@H](CC)CO [ethambutol] + NNC(=O)c1ccncc1 [isoniazid] + CC(=O)NC[C@H]1CN(c2ccc(N3CCOCC3)c(F)c2)C(=O)O1 [linezolid]
measured-value: 0.121
//
molecule: COc1nc2ccc(Br)cc2cc1[C@@H](c1ccccc1)[C@@](O)(CCN(C)C)c1cccc2ccccc12 [bedaquiline] + CC(C)/N=c1\cc2n(-c3ccc(Cl)cc3)c3ccccc3nc-2cc1Nc1ccc(Cl)cc1 [clofazimine] + CC(=O)NC[C@H]1CN(c2ccc(N3CCOCC3)c(F)c2)C(=O)O1 [linezolid]
measured-value: 0.0962
//
molecule: NNC(=O)c1ccncc1 [isoniazid] + COc1c(N2C[C@@H]3CCCN[C@@H]3C2)c(F)cc2c(=O)c(C(=O)O)cn(C3CC3)c12 [moxifloxacin] + CO[C@H]1/C=C/O[C@@]2(C)Oc3c(C)c(O)c4c(O)c(c(/C=N/N5CCN(C)CC5)c(O)c4c3C2=O)NC(=O)/C(C)=C\C=C\[C@H](C)[C@H](O)[C@@H](C)[C@@H](O)[C@@H](C)[C@H](OC(C)=O)[C@@H]1C [rifampicin]
measured-value: 0.0682
//
molecule: CC(C)/N=c1\cc2n(-c3ccc(Cl)cc3)c3ccccc3nc-2cc1Nc1ccc(Cl)cc1 [clofazimine] + CC(=O)NC[C@H]1CN(c2ccc(N3CCOCC3)c(F)c2)C(=O)O1 [linezolid] + O=[N+]([O-])c1cn2c(n1)OC[C@@H](OCc1ccc(OC(F)(F)F)cc1)C2 [pretomanid]
measured-value: 0.123
//
molecule: NNC(=O)c1ccncc1 [isoniazid] + CC(=O)NC[C@H]1CN(c2ccc(N3CCOCC3)c(F)c2)C(=O)O1 [linezolid] + NC(=O)c1cnccn1 [pyrazinamide]
measured-value: 0.0817

Next, consider the following molecule.
Q: Field request: AUC25 | item: CC[C@@H](CO)NCCN[C@@H](CC)CO [ethambutol] + CC(=O)NC[C@H]1CN(c2ccc(N3CCOCC3)c(F)c2)C(=O)O1 [linezolid] + CO[C@H]1/C=C/O[C@@]2(C)Oc3c(C)c(O)c4c(O)c(c(/C=N/N5CCN(C6CCCC6)CC5)c(O)c4c3C2=O)NC(=O)/C(C)=C\C=C\[C@H](C)[C@H](O)[C@@H](C)[C@@H](O)[C@@H](C)[C@H](OC(C)=O)[C@@H]1C [rifapentine]
Result: 0.103
